System: Strep. pyogenes
assay remarks: in vivo activity in mice infected with a lethal inoculum of Strep. pyogenes
measurement setup: Streptococcus pyogenes, oral, multiple dosing, read-out: IN VIVO Strep. pyogenes, number of survivors among the treated animals, PO (data in parenthesis)
metric: responders at 50 mg/kg (%)
Write the value in % as a bare number.

Ask | Which responders at 50 mg/kg is reported for this molecule? `CCOC(=O)CSCc1c(C(=O)NC)[n+]([O-])c2ccccc2[n+]1[O-]`
Reply | 0

Ask | Which responders at 50 mg/kg is reported for this molecule? `COCCNC(=O)c1c(CS(=O)(=O)CCCN(C)C)[n+]([O-])c2ccccc2[n+]1[O-]`
Reply | 50

Ask | Which responders at 50 mg/kg is reported for this molecule? `CCCCNC(=O)c1c(CS(=O)(=O)CCCN(C)C)[n+]([O-])c2ccccc2[n+]1[O-]`
Reply | 80

Ask | Which responders at 50 mg/kg is reported for this molecule? CC(O)CNC(=O)c1c(CS(=O)(=O)CCO)[n+]([O-])c2ccccc2[n+]1[O-] (stereo not drawn)
Reply | 10

Ask | Which responders at 50 mg/kg is reported for this molecule? `CNC(=O)c1c(CS(=O)(=O)CCOC(C)=O)[n+]([O-])c2ccccc2[n+]1[O-]`
Reply | 70

Ask | Which responders at 50 mg/kg is reported for this molecule? CCC(CO)NC(=O)c1c(CS(=O)(=O)CCO)[n+]([O-])c2ccccc2[n+]1[O-] (stereo not drawn)
Reply | 80

---

Answer each item with its documented MIC.
Tested on: E. coli
assay remarks: in vitro antibacterial activity, two-fold serial dilution in Brain-Heart Infusion Broth (MIC)
Format: cell-based
measurement setup: Escherichia coli, overnight, anaerobic
Write the value in µg/mL as a bare number.

Ask | Which MIC is reported for this molecule? CNC(=O)c1c(CS(=O)(=O)CCCN2CCCCC2)[n+]([O-])c2ccccc2[n+]1[O-] [NHCH3; drawing 23; H]
Reply | 6.25

Ask | Which MIC is reported for this molecule? CC(O)CNC(=O)c1c(CS(=O)(=O)CCO)[n+]([O-])c2ccccc2[n+]1[O-] (stereo not shown)
Reply | 100

Ask | Which MIC is reported for this molecule? `O=C(NCCCO)c1c(CSCCO)[n+]([O-])c2ccccc2[n+]1[O-]`
Reply | 50

Ask | Which MIC is reported for this molecule? CNC(=O)c1c(CS(=O)(=O)CCCCN2CCCCC2)[n+]([O-])c2ccccc2[n+]1[O-] [NHCH3; drawing 29; H]
Reply | 12.5

Ask | Which MIC is reported for this molecule? `CCNC(=O)c1c(CS(=O)(=O)CCO)[n+]([O-])c2ccccc2[n+]1[O-]`
Reply | 6.25

Ask | Which MIC is reported for this molecule? `CCSCCNC(=O)c1c(CS(=O)(=O)CCO)[n+]([O-])c2ccccc2[n+]1[O-]`
Reply | 100

Ask | Which MIC is reported for this molecule? `CCNC(=O)c1c(CSCCO)[n+]([O-])c2ccccc2[n+]1[O-]`
Reply | 6.25
